All figures here come from ChEMBL document CHEMBL3286351.

tested on: Staphylococcus aureus; assay: Antibacterial activity against Staphylococcus aureus MTCC 3160 assessed as growth inhibition after 18 hrs by CLSI microdilution broth assay; format: functional; conditions: MTCC 3160, 18 h
Where a SMILES comes first, the peptide text is derived from it. [ ]: non-standard residue; d: D form. 3Abz = Nc1cccc(C(=O)O)c1; Orn = NCCC[CH](N)C(=O)O
recorded.metric: log10(MIC) (log10 of the value in µg/mL)
Remember, log10 of MIC, in µg/mL.

Query: Give me measured log10(MIC), please, for this molecule: NCCCC(NC(=O)C(Cc1c[nH]c2ccccc12)NC(=O)C(Cc1c[nH]c2ccccc12)NC(=O)C(CCCN)NC(=O)C(N)Cc1c[nH]c2ccccc12)C(N)=O (stereo unspecified) (H-W[Orn]WW[Orn]-NH2; configuration not given here)
Response: 1.70

Query: Give me measured log10(MIC), please, for this molecule: N=C(N)NCCCC(NC(=O)C(Cc1c[nH]c2ccccc12)NC(=O)C(Cc1c[nH]c2ccccc12)NC(=O)C(CCCNC(=N)N)NC(=O)C(N)Cc1c[nH]c2ccccc12)C(N)=O (stereo unspecified) (H-WRWWR-NH2; configuration not given here)
Response: 1.18

Query: Give me measured log10(MIC), please, for this molecule: N=C(N)NCCCC(NC(=O)C(CCCNC(=N)N)NC(=O)c1cccc(NC(=O)C(CCCNC(=N)N)NC(=O)C(Cc2c[nH]c3ccccc23)NC(=O)C(N)Cc2c[nH]c3ccccc23)c1)C(N)=O (stereo unspecified) (H-WWR[3Abz]RR-NH2; configuration not given here)
Response: 1.70

Query: Give me measured log10(MIC), please, for this molecule: N=C(N)NCCCC(N)C(=O)NC(Cc1c[nH]c2ccccc12)C(=O)NC(CCCNC(=N)N)C(=O)Nc1cccc(C(=O)NC(Cc2c[nH]c3ccccc23)C(=O)NC(CCCNC(=N)N)C(N)=O)c1 (stereo unspecified) (H-RWR[3Abz]WR-NH2; configuration not given here)
Response: 1.70

Query: Give me measured log10(MIC), please, for this molecule: N=C(N)NCCCC(N)C(=O)NC(Cc1c[nH]c2ccccc12)C(=O)NC(Cc1c[nH]c2ccccc12)C(=O)Nc1cccc(C(=O)NC(CCCNC(=N)N)C(=O)NC(CCCNC(=N)N)C(N)=O)c1 (stereo unspecified) (H-RWW[3Abz]RR-NH2; configuration not given here)
Response: 1.40

Query: Give me measured log10(MIC), please, for this molecule: NCCCC(N)C(=O)NC(CCCN)C(=O)NC(Cc1c[nH]c2ccccc12)C(=O)NC(Cc1c[nH]c2ccccc12)C(=O)NC(CCCN)C(N)=O (stereo unspecified) (H-[Orn][Orn]WW[Orn]-NH2; configuration not given here)
Response: 1.85

Query: Give me measured log10(MIC), please, for this molecule: NCCCC(NC(=O)C(CCCN)NC(=O)c1cccc(NC(=O)C(Cc2c[nH]c3ccccc23)NC(=O)C(CCCN)NC(=O)C(N)Cc2c[nH]c3ccccc23)c1)C(N)=O (stereo unspecified) (H-W[Orn]W[3Abz][Orn][Orn]-NH2; configuration not given here)
Response: 1.40

Query: Give me measured log10(MIC), please, for this molecule: N=C(N)NCCCC(N)C(=O)NC(Cc1c[nH]c2ccccc12)C(=O)Nc1cccc(C(=O)NC(CCCNC(=N)N)C(N)=O)c1 (stereo unspecified) (H-RW[3Abz]R-NH2; configuration not given here)
Response: 1.70

Query: Give me measured log10(MIC), please, for this molecule: N=C(N)NCCCC(N)C(=O)NC(Cc1c[nH]c2ccccc12)C(=O)Nc1cccc(C(=O)NC(Cc2c[nH]c3ccccc23)C(=O)NC(CCCNC(=N)N)C(N)=O)c1 (stereo unspecified) (H-RW[3Abz]WR-NH2; configuration not given here)
Response: 1.10

Query: Give me measured log10(MIC), please, for this molecule: NCCCC(NC(=O)C(Cc1c[nH]c2ccccc12)NC(=O)c1cccc(NC(=O)C(CCCN)NC(=O)C(CCCN)NC(=O)C(N)Cc2c[nH]c3ccccc23)c1)C(N)=O (stereo unspecified) (H-W[Orn][Orn][3Abz]W[Orn]-NH2; configuration not given here)
Response: 1.60

Query: Give me measured log10(MIC), please, for this molecule: N=C(N)NCCCC(NC(=O)C(Cc1c[nH]c2ccccc12)NC(=O)c1cccc(NC(=O)C(Cc2c[nH]c3ccccc23)NC(=O)C(CCCNC(=N)N)NC(=O)C(N)Cc2c[nH]c3ccccc23)c1)C(N)=O (stereo unspecified) (H-WRW[3Abz]WR-NH2; configuration not given here)
Response: 0.70

Query: Give me measured log10(MIC), please, for this molecule: NCCCC(N)C(=O)NC(Cc1c[nH]c2ccccc12)C(=O)Nc1cccc(C(=O)NC(Cc2c[nH]c3ccccc23)C(=O)NC(CCCN)C(N)=O)c1 (stereo unspecified) (H-[Orn]W[3Abz]W[Orn]-NH2; configuration not given here)
Response: 1.24

Query: Give me measured log10(MIC), please, for this molecule: N=C(N)NCCCC(NC(=O)C(CCCNC(=N)N)NC(=O)c1cccc(NC(=O)C(Cc2c[nH]c3ccccc23)NC(=O)C(CCCNC(=N)N)NC(=O)C(N)Cc2c[nH]c3ccccc23)c1)C(N)=O (stereo unspecified) (H-WRW[3Abz]RR-NH2; configuration not given here)
Response: 1.40

Query: Give me measured log10(MIC), please, for this molecule: NCCCC(N)C(=O)NC(CCCN)C(=O)NC(Cc1c[nH]c2ccccc12)C(=O)Nc1cccc(C(=O)NC(Cc2c[nH]c3ccccc23)C(=O)NC(CCCN)C(N)=O)c1 (stereo unspecified) (H-[Orn][Orn]W[3Abz]W[Orn]-NH2; configuration not given here)
Response: 0.88

Query: Give me measured log10(MIC), please, for this molecule: N=C(N)NCCCC(N)C(=O)NC(CCCNC(=N)N)C(=O)NC(Cc1c[nH]c2ccccc12)C(=O)Nc1cccc(C(=O)NC(Cc2c[nH]c3ccccc23)C(=O)NC(CCCNC(=N)N)C(N)=O)c1 (stereo unspecified) (H-RRW[3Abz]WR-NH2; configuration not given here)
Response: 0.80
